# measuredTarget: T1, recombinant human PDL1 (human, UniProt Q9NZQ7 19-238, limits assumed)
# T1 construct: SPR antigen; also called CD274; B7-H1
# assayDetails: SPR
quantity: pKd
// pKd: -log10(molar conc.)

Worked examples, 5 binders total:
PRO1347 (scFv, anti-PDL1 scFv; also called 37-20-B03-sc09) scFv: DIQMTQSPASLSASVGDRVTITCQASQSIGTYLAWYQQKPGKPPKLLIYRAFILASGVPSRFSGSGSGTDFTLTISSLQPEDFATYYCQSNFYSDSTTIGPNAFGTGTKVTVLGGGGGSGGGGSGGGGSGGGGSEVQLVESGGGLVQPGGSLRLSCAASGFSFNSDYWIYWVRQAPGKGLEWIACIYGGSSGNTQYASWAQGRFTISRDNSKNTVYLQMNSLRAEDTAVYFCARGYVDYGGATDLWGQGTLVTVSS: 10.96
PRO1392 (scFv, anti-PDL1 scFv (VL-linker-VH); also called 33-03-G02-sc18) scFv: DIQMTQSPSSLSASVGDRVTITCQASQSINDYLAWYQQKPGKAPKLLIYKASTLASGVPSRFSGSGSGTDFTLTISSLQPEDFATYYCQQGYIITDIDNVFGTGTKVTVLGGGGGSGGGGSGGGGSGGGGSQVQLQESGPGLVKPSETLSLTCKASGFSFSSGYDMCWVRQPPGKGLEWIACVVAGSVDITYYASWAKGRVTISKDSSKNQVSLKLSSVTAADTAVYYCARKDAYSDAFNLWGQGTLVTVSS: 11.07
PRO3891 (scFv, anti-PDL1 scFv) scFv: DIQMTQSPSSLSASVGDRVTITCQASQSINDYLAWYQQKPGKAPKLLIYKGGTLASGVPSRFSGSGSGTDFTLTISSLQPEDFATYYCQQGYIITDIDNVFGTGTKVTVLGGGGGSGGGGSGGGGSGGGGSQVQLQESGPGLVKPSETLSLTCKASGFSFSSGYDMCWVRQPPGKGLEWIACVVAGSVDITYYASWAKGRVTISKDSSKNQVSLKLSSVTAADSAVYYCARKDAYSDAFNLWGQGTLVKVSS: 11.39
PRO4245 (scFv, anti-PDL1 scFv) scFv: DIQMTQSPSSLSASVGDRVTITCQASQSIGTYLAWYQQKPGKPPKLLIYRGGILASGVPSRFSGSGSGTDFTLTISSLQPEDFATYYCQSNFYSDSTTIGPNAFGTGTKVTVLGGGGGSGGGGSGGGGSGGGGSQQLVESGGGLVQPGGSLRLSCAASGFSFNSDYWIYWVRQAPGKGLEWIASIYGGSSGNTQYASWAQGRFTISKDNSKNTVYLQMNSLRAEDSAVYFCARGYVDYGGATDLWGQGTLVKVSS: 10.44
PRO3724 (scFv, anti-PDL1 scFv) scFv: DIQMTQSPSSLSASVGDRVTITCQASQSINDYLAWYQQKPGKAPKLLIYKGGTLASGVPSRFSGSGSGTDFTLTISSLQPEDFATYYCQQGYIITDIDNVFGTGTKVTVLGGGGGSGGGGSGGGGSGGGGSQVQLQESGPGLVKPSETLSLTCKASGFSFSSGYDMCWVRQPPGKGLEWIACVVAGSVDITYYASWAKGRVTISKDSSKNQVSLKLSSVTAADTAVYYCARKDAYSDAFNLWGQGTLVTVSS: 10.92

Let us examine a further case.
According to the records, this binder PRO3723 (scFv, anti-PDL1 scFv) scFv: DIQMTQSPASLSASVGDRVTITCQASQSIGTYLAWYQQKPGKPPKLLIYRGGILASGVPSRFSGSGSGTDFTLTISSLQPEDFATYYCQSNFYSDSTTIGPNAFGTGTKVTVLGGGGGSGGGGSGGGGSGGGGSEVQLVESGGGLVQPGGSLRLSCAASGFSFNSDYWIYWVRQAPGKGLEWIACIYGGSSGNTQYASWAQGRFTISRDNSKNTVYLQMNSLRAEDTAVYFCARGYVDYGGATDLWGQGTLVTVSS displays pKd of 10.59
